Recorded pEC50 for the following compounds
- TGT: hKv7.2/3 (Homo sapiens, UniProt O43525+O43526)
- Construct: host or cells: CHO
- Sequence (O43525 whole entry): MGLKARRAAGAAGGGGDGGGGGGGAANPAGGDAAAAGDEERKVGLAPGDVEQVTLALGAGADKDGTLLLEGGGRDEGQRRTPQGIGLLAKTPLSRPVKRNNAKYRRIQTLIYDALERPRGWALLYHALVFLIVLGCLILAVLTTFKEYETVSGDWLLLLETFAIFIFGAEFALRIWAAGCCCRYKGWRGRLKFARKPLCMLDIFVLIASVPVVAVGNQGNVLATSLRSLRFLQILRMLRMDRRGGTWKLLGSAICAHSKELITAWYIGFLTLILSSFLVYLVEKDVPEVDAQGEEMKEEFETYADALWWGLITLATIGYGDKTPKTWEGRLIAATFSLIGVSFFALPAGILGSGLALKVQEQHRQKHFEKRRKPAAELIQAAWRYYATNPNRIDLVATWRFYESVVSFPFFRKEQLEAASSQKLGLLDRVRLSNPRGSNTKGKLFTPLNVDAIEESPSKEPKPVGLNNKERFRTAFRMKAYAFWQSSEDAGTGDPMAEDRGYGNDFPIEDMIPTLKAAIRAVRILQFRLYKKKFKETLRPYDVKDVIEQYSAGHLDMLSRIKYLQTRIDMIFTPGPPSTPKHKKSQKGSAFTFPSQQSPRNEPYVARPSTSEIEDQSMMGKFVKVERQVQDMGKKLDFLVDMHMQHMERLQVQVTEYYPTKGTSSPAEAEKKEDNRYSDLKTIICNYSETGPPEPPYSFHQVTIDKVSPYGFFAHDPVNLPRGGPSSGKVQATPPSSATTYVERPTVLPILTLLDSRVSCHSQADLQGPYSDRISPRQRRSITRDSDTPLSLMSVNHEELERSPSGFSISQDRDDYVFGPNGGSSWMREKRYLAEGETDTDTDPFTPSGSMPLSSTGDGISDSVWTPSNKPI
- Sequence (O43526 whole entry): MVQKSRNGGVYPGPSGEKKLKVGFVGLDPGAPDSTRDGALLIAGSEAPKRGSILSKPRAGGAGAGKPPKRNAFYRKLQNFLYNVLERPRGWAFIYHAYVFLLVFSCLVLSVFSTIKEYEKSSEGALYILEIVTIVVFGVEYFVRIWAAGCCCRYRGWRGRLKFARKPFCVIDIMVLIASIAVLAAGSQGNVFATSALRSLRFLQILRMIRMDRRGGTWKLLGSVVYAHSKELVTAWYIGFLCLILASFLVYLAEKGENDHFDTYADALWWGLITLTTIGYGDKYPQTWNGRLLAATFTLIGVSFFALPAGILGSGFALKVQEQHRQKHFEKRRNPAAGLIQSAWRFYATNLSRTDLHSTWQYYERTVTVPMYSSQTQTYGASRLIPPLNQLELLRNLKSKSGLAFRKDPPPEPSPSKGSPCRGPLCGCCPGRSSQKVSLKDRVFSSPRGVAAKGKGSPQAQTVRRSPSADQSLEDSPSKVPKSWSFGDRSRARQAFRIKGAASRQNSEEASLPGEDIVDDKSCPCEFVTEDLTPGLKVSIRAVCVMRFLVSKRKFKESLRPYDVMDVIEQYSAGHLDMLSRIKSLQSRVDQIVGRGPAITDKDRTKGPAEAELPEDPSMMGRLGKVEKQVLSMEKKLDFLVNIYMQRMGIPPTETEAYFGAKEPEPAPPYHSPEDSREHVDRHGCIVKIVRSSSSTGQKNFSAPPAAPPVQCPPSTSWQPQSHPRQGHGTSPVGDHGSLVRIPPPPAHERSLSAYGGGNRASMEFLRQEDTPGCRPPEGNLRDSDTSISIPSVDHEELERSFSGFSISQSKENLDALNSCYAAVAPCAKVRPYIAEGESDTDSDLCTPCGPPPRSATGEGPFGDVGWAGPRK
- PROTOCOL: Kv7.2/7.3 HCS, FLIPR potassium (thallium) assay, CHO/hKv7.2/3
- Type: cell-based
- STUDY_CONDITIONS: read-out: hKv7.2/3 EC50 HCS
On this scale, pEC50 is minus log10 of a concentration expressed in M (mol/L).

Cc1cn(-c2ccc(F)c(CC(=O)NCC(C)(C)O)c2)c2c(Cl)cc(Cl)cc12 [Compound 421]; 6.08

Read the next record carefully.
Challenge: Would you kindly share the measured pEC50 for O=C(Cc1cncc(-n2cc(Cl)c3cc(Cl)cc(Cl)c32)c1)N[C@@H]1COC[C@H]1O [Compound 661] ?
Response given: 12.00

====

- PROTOCOL: Rat pharmacokinetics
- Type: in vivo
- STUDY_CONDITIONS: rat, plasma, iv, 1 mg/kg; read-out: Volume of distribution at steady state (Vdss)
VALUE_KIND: Vd (L/kg)
Answer in L/kg, number only, no unit symbol.

Challenge: Would you kindly share the measured Vd for O=C(Cc1nccc(-n2cc(Cl)c3cc(Cl)cc(Cl)c32)n1)NC1COCC1O (stereo not shown) [Compound 760] ?
Response given: 2.37

====

Recorded CLint scaled for the following compounds
- PROTOCOL: Rat hepatocyte stability
- Type: in vitro ADME
- STUDY_CONDITIONS: hepatocytes
Answer in mL/min/kg, number only, no unit symbol.

O=C(Cc1cncc(-n2cc(Cl)c3cc(Cl)cc(Cl)c32)c1)N[C@@H]1COC[C@H]1O [Compound 661]; 1140

Read the next record carefully.
Challenge: Would you kindly share the measured CLint scaled for O=C(Cc1cc(-n2cc(Cl)c3cc(Cl)cc(Cl)c32)ccc1F)NCCO [Compound 627] ?
Response given: 514

====

- TGT: hTRPV1 (Homo sapiens)
- Construct: CDS of NM_080704.4, inserted into the multiple cloning site of pcDNA3.1(+); host or cells: CHO/hKv7.2/3
- Sequence (Q8NER1 whole entry): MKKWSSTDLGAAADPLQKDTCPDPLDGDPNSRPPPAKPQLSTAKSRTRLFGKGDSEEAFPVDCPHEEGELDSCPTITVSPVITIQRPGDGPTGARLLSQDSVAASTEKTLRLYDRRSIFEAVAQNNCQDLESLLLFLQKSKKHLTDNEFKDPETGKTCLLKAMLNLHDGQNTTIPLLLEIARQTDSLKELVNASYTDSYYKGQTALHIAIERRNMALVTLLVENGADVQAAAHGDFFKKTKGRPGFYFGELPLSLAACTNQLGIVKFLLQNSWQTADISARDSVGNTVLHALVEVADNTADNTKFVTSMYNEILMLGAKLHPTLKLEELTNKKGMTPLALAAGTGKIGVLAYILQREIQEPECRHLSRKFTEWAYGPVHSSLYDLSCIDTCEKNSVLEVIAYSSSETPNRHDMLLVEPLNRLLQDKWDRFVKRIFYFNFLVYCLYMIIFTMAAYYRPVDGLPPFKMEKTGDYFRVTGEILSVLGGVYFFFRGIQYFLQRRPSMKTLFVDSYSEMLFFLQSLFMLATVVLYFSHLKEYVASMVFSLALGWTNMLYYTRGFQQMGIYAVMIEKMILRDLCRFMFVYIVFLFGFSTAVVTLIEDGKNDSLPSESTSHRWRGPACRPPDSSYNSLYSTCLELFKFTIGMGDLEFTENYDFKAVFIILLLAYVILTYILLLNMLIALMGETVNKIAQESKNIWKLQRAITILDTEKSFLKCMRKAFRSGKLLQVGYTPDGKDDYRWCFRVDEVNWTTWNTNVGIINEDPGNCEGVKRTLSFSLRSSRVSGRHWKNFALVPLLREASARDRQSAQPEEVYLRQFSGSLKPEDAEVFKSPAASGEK
- PROTOCOL: TRPV1 HCS, Fluo-8 calcium flux, capsaicin activation, CHO cells expressing hTRPV1
- Assay type: cell-based
- STUDY_CONDITIONS: Table 2; read-out: Experimental IC50
VALUE_KIND: pIC50
On this scale, pIC50 is minus log10 of a concentration expressed in M (mol/L).

Challenge: Identify the measured pIC50 of COC[C@@H](CO)NC(=O)Cc1cc(Sc2c(Cl)cc(Cl)cc2C(C)C)ccc1F [Compound 414] for hTRPV1 (Homo sapiens).
Response given: 5.96

====

Recorded CC50 at 3 h for the following compounds
- PROTOCOL: In vitro micronucleus
- Format: cell-based
- STUDY_CONDITIONS: hamster, cho-k1 cells; Plate 2 without S9, 3 hours; read-out: Cytotoxicity (%) Absolute EC50

Challenge: Would you kindly share the measured CC50 at 3 h for O=C(Cc1nccc(-n2cc(Cl)c3cc(Cl)cc(Cl)c32)n1)NC1COCC1O (centres unmarked) ?
Response given: > 200 µM

Challenge: Would you kindly share the measured CC50 at 3 h for CO[C@@]12[C@H](COC(N)=O)C3=C(C(=O)C(C)=C(N)C3=O)N1C[C@@H]1N[C@@H]12 [Mitomycin C, reference compound] ?
Response given: > 16 µM

Source listed as patent US20260327211A1.
